- System: Aβ42
- run_description: γ-secretase-modulating activity, Method 2: Aβ42 Alphalisa in supernatant of SKNBE2 cells carrying APP 695-wild type (Table 3b)
- Type: cell-based
- measurement_context: overnight
measured_endpoint: IC50 (nM)

Use the examples below as a reference point.
molecule	assayed_system	unit_string	IC50
COc1cc(-c2nc3n(n2)CCCC3c2ccccc2C(F)(F)F)ccc1-n1cnc(C)c1 (stereo not drawn) [Compound 336]	Aβ42	nM	129
COc1nc(-c2nc(Nc3cccc(F)c3Cl)n(C)n2)ccc1-n1cnc(C)c1 [Compound 302]	Aβ42	nM	71
COc1cc(-c2nc(N3CCC(c4ccccc4)CC3)n(C)n2)ccc1-n1cnc(C)c1 [Compound 77]	Aβ42	nM	145
COc1cc(-c2nc3n(n2)CCCOC3c2ccccc2C(F)(F)F)ccc1-n1cnc(C)c1 (stereo not drawn) [Compound 285]	Aβ42	nM	76
COc1cc(-c2nc(Nc3cccc(F)c3C(F)(F)F)n(C)n2)ccc1-n1cnc(C)c1 [Compound 155]	Aβ42	nM	95

1 = COc1cc(-c2nc(N[C@@H](C)c3ccc(F)cc3)n(C)n2)ccc1-n1cnc(C)c1 [Compound 51]
2 = COc1cc(-c2nc3n(n2)CCOC3c2ccccc2C(F)(F)F)ccc1-n1cnc(C)c1 (stereo not drawn) [Compound 306]
Ask: Between the entries labelled 1 and 2 , which has a larger IC50 value on record? Indicate which entry you chose by stating its label.
Result: 1

====

- Tested on: Aβ42
- run_description: γ-secretase-modulating activity, Method 2: Aβ42 Alphalisa in supernatant of SKNBE2 cells carrying APP 695-wild type (Table 3b)
- Assay type: cell-based
- measurement_context: overnight
measured_endpoint: IC50 (nM)

molecule_smiles	measured_number
COc1cc(-c2nc(C3(c4ccc(F)cc4)CC3)n(C)n2)ccc1-n1cnc(C)c1	302

P = COc1cc(-c2nc(Nc3cc(F)ccc3Cl)n(C)n2)ccc1-n1cnc(C)c1
Q = COc1cc(-c2nc(Nc3ccc(F)cc3C(F)(F)F)nn2C)ccc1-n1cnc(C)c1
Ask: Parameter metric = IC50. Return the lower-valued option from P and Q . Indicate which entry you chose by stating its label.
Result: P

====

- Tested on: Aβ42
- run_description: γ-secretase-modulating activity, Method 2: Aβ42 Alphalisa in supernatant of SKNBE2 cells carrying APP 695-wild type (Table 3b)
- Assay type: cell-based
- measurement_context: overnight
pIC50: −log10 of the molar value.
measured_endpoint: pIC50

molecule	pIC50
COc1cc(Nc2nc(-c3ccc(-n4cnc(C)c4)c(OC)c3)nn2C)c(F)c(C(F)(F)F)c1	7.60
CCn1nc(-c2ccc(-n3cnc(C)c3)c(OC)c2)nc1Nc1cc(C(F)(F)F)ccc1F	7.59
COc1cc(-c2nc3n(n2)C(C)CCC3c2ccc(F)cc2C)ccc1-n1cnc(C)c1 (stereo not shown)	6.39
COc1cc(-c2nc(Nc3cc(F)c(C(F)(F)F)cc3F)n(C)n2)ccc1-n1cnc(C)c1	7.33
COc1cc(-c2nc(Oc3ccccc3Cl)n(C(C)C)n2)ccc1-n1cnc(C)c1	6.44
COc1cc(-c2nc(Nc3cc(N(C)C)ccc3F)n(C)n2)ccc1-n1cnc(C)c1	7.66

P = COc1cc(-c2nc(-c3cc(Cl)ccc3C)n[nH]2)ccc1-n1cnc(C)c1
Q = COc1cc(-c2nc(Nc3ccc(F)c(C(F)(F)F)c3)n(C)n2)ccc1-n1cnc(C)c1
R = COc1cc(-c2nc(Nc3ccccc3Br)n(C)n2)ccc1-n1cnc(C)c1
Ask: Number of molecules to sort: 3. Sort criterion: pIC50, ascending. Please write the labels in the order that was asked for.
Result: P, R, Q
(P: 6.58, R: 7.25, Q: 7.72)
